test details: inhibitors of TWEAK-Fn14 signaling, primary screen, luciferase reporter cells, uHTS (AID 1159606)
assay context: TWEAK-stimulated Fn14 reporter cells, luciferase luminescence, 8 h; at 10 µM; active compounds read high
The whole screen tested about 360,000 compounds, of which about 7,300 (2%) were called active. The sample holds actives, similar compounds and a random draw of the others, so the mix is not that of the screen.
# label = TRUE if inhibition >= 20% else FALSE

compound	group
Clc1ccc(COn2c(-c3ccc(Cl)cc3Cl)nc3ncccc32)cc1	FALSE
Cc1nnsc1C(=O)NCc1c(F)cccc1Cl	TRUE
Cc1nnsc1C(=O)Nc1cccc(Cl)c1C	FALSE
CCOc1ccc(CCN2C(=O)C(=O)N([C@@H](CC(C)C)CN3CCC[C@H]3CN3C(=O)C(=O)NC[C@@H]3Cc3ccccc3)C[C@@H]2CC(C)C)cc1	FALSE
Clc1ccc(-c2cc(-c3ccccn3)on2)c(Cl)c1	TRUE
